assay: Human HepG2 cell viability assay in 384 well format; format: toxicity, cell-based; set-up: dose 125 nL, time 70.5 hour; concentration not given beside the values; details: HepG2 cells, read-out: Inhibition
Measured cytotoxicity at 70.5 h, listed per entry.
// note: answer is a bare numeric in %

Known results for molecules:
Cc1c(C(=O)O)nnn1Cc1cccc(C(F)(F)F)c1 = -12.7
O=C(c1cscn1)N1CCC[C@]2(C[C@H](OCC3CC3)CO2)C1 = -5.48
O=C(CCn1cc(Cl)cn1)Nc1ccc2c(c1)OCCO2 = -8.19
Cc1ccc(-c2nc(C3CCN(C(=O)c4ccn(C)n4)CC3)no2)cn1 = -10.5
Cc1nn(C)c(C)c1C1COCCN1C(=O)CCc1ccccc1 (configuration not stated) = -1.71

Please give measured cytotoxicity at 70.5 h of the following entry: Cc1cc(C)n(CC2CN(Cc3nc(-c4ccoc4)no3)CCO2)n1 (configuration not stated)
-15.7

In one line, give reported cytotoxicity at 70.5 h of the entry `CC(C)NC(=O)CN(C)C1CCN(c2ccc(C#N)cn2)CC1` .
0.463

###

test: Human HepG2 cell viability assay in 384 well format; format: toxicity, cell-based; design: dose 125 nL, time 70.5 hour; concentration not given beside the values; conditions: HepG2 cells, read-out: Inhibition
Consider the following compounds and their measured cytotoxicity at 70.5 h readings.
Kindly provide the numeric value in % only, without the unit symbol.

// solved cases for cytotoxicity at 70.5 h follow
N#CC1(C(=O)N2CCCN(c3nccs3)CC2)CCCC1 = -11
Cc1nn(C)c2c(N3CCN(C(=O)C4CCCCC4)CC3)ncnc12 = 14.6

Input Cc1cnn(CC2CCCN2C(=O)c2ccc(OC(C)C)nc2)c1 (configuration not stated) , output reported cytotoxicity at 70.5 h.
-15

For `CCN(CC)S(=O)(=O)N1CCc2nc(C3CCNCC3)ncc2C1` , write its cytotoxicity at 70.5 h.
-4.41

For the compound `CCc1c(C(=O)N2CCCN(C(C)=O)CC2)cnn1C(C)(C)C` , report cytotoxicity at 70.5 h.
-0.109

State its cytotoxicity at 70.5 h for this compound: `Cc1oc(CNC(=O)Cc2ccc3ccccc3c2)cc1C(=O)O`
5.89

// fetch cytotoxicity at 70.5 h given entry `Cc1csc(CNc2cnn(C(C)C)c2)n1`
3.67

Tell me its cytotoxicity at 70.5 h given `O=C(O)c1cc(S(=O)(=O)N2CCOc3ccccc32)cc(Cl)c1Cl` as the entry.
-9.63

Read off the recorded cytotoxicity at 70.5 h for `COCCN1C[C@H]2CC[C@@H]1CN(Cc1nc3ccccc3n1C)C2`
-6.43

Quickly give me recorded cytotoxicity at 70.5 h for `O=C(NCCCOCC1CC1)Nc1ccc(F)cc1`
0.857

###

assay: Human HepG2 cell viability assay in 384 well format; assay type: toxicity, cell-based; parameters: dose 125 nL, time 70.5 hour; concentration not given beside the values; settings: HepG2 cells, read-out: Inhibition
// values below are reported cytotoxicity at 70.5 h
Reply numerically in %, unit not repeated.

Known results for compounds:
CN(C(=O)c1ccn(C)n1)[C@@H]1CCC[C@@H](Oc2ccccc2)[C@@H]1O = -4.51
c1coc(CN2CC[C@H]3O[C@@H](COCC4CC4)CC[C@H]32)c1 = 7.95
CC(C)CN1CC[C@H]2OCC[C@@H](C(=O)N3CCCO3)[C@@H]2C1 = -18.2
COCC1CC2(CCN(c3ccccn3)CC2)CN1C(C)C (stereo not given) = -11.6
CN(Cc1nnc(-c2cccs2)o1)C(C(N)=O)c1cccc(F)c1 (stereo not given) = -22

Provide cytotoxicity at 70.5 h value for the following compound: `c1cnc(N2CCCn3c(nnc3Cn3cccn3)C2)nc1`
1.91

Query cytotoxicity at 70.5 h for CC(C)(C)c1nnc(CN2CCOC(Cn3cncn3)C2)o1 (stereo not given)
-1.42

Please list cytotoxicity at 70.5 h recorded for the compound `CCN1CCN(CCNC(=O)c2sc(C)nc2C)CC1`
-5.81

Could you please provide reported cytotoxicity at 70.5 h for `CS(=O)(=O)N1CCOCC12CCN(c1nncs1)CC2` ? Thanks!
5.03

For the compound `CN(C)C(=O)c1cnc2n1CCN(Cc1ccc3c(c1)OCO3)C2` , report cytotoxicity at 70.5 h.
-7.97

Check the records and state cytotoxicity at 70.5 h for `CN(C)Cc1cccc(-c2cccnc2C(=O)NCc2cn(C)cn2)c1`
-1.14

Indicate its recorded cytotoxicity at 70.5 h; the compound in question is `Cc1ncsc1C(=O)N1CC[C@@]2(O)CCN(C(=O)N3CCCC3)C[C@H]2C1`
12.8

# return recorded cytotoxicity at 70.5 h for entry Cc1nn(CCC(=O)NC(C(=O)O)c2c(C)n[nH]c2C)c(C)c1C (stereo not given)
-3.08

Specify measured cytotoxicity at 70.5 h for `CCCc1nc(C)c(C(=O)NCCNc2ncccc2C#N)s1` .
0.537

Please indicate cytotoxicity at 70.5 h recorded for CSCC(CCO)NC(=O)Nc1cccc(Br)c1C (stereo not given)
-21.2

Supply cytotoxicity at 70.5 h value. Item: `O=C(NCc1cccnc1N1CCCCC1)c1ccc2cc[nH]c2c1`
-15.2

Give the measured cytotoxicity at 70.5 h for `c1cnn(Cc2ccc(CN3CCC4(CCNCC4)C3)cc2)c1`
2.52

Check the records and state cytotoxicity at 70.5 h for `O=C(C1CC1)N1CCC2(CCCN2Cc2ccc(F)cc2)CC1`
5.51

For the compound CCCn1ccnc1-c1cccc(NC(=O)C2CCCOC2)c1 (stereo not given) , give its measured cytotoxicity at 70.5 h value.
-5.58

###

assay: Human HepG2 cell viability assay in 384 well format; format: toxicity, cell-based; set-up: dose 125 nL, time 70.5 hour; concentration not given beside the values; details: HepG2 cells, read-out: Inhibition
quantity: cytotoxicity at 70.5 h (%)
Kindly answer with a numeric value in %, unit omitted.

Previously resolved entries follow.
COCCN1C(=O)CC[C@@H]2[C@H]1CCN2Cc1ccc(C)s1 = -11.5
Cc1ccc(CC(=O)N2CCOC(c3nc(C(C)(C)C)n[nH]3)C2)cn1 (stereo unspecified) = -4.13
Cc1ccc(C2(CN3CCCC3)CCNCC2)nc1 = -9.4
N#CC1(C(=O)N2CCCN(c3nccs3)CC2)CCCCC1 = -4.97
CS(=O)(=O)c1ccc(NC(=O)CSc2ccc3c(c2)CCC3)cc1 = 1.38

Return value of cytotoxicity at 70.5 h for input COc1cccc(C2CCCN2C(=O)c2ccc(=O)n(C)c2)c1 (stereo unspecified) , no commentary.
-3.72

###

assay: Human HepG2 cell viability assay in 384 well format; format: toxicity, cell-based; parameters: dose 125 nL, time 70.5 hour; concentration not given beside the values; conditions: HepG2 cells, read-out: Inhibition
quantity: cytotoxicity at 70.5 h (%)
The response must be a number in % with no trailing unit.

CC(C(=O)Nc1ncccn1)N1CCC(n2ccnc2)CC1 (stereo unspecified) = -4.52
CC1CCC(NC(=O)c2nn(C)cc2I)CC1 (stereo unspecified) = -7.74

State its cytotoxicity at 70.5 h for this compound: `CC(=O)N1CCC(n2nccc2-c2cnc(N)nc2)CC1`
-6.3

For the compound `CN(Cc1ccon1)c1nc(-c2ccccn2)nc2c1CCNCC2` , give its measured cytotoxicity at 70.5 h value.
12.3

Recall and state the measured cytotoxicity at 70.5 h for `c1csc(NCc2n[nH]c3c2CCN(CC2CC2)C3)n1` .
-14.2

For the compound CC(=O)Nc1ccc(S(=O)(=O)NC(=O)CCC2CCCO2)cc1 (stereo unspecified) , report cytotoxicity at 70.5 h.
26.4

###

assay: Human HepG2 cell viability assay in 384 well format; format: toxicity, cell-based; set-up: dose 125 nL, time 70.5 hour; concentration not given beside the values; details: HepG2 cells, read-out: Inhibition
quantity: cytotoxicity at 70.5 h (%)
Just the number please, in %, no unit attached.

// below: answered compounds
CNc1nc(C(=O)NCc2cccnc2N(C)C)cs1 = 1.65
CCN(CC1CC1)C(=O)NCc1nnc2n1CCC2 = 1.57
CC(C)C(NC(=O)c1ccc(=O)[nH]c1)c1nnc2n1CCNCC2 (stereo not drawn) = -6.19
CCC(=O)Nc1ccc(C(C)Nc2nc3c(cnn3C)c(=O)[nH]2)cc1 (stereo not drawn) = -5.84
Cc1ccc(Sc2ccc(CN3CCC4(CCCNC4=O)C3)o2)cc1 (stereo not drawn) = 5.69
N#Cc1cccc(S(=O)(=O)NC(=O)COc2ccc3c(c2)CCC3)c1 = 4.27
CC(C)c1nc(N2CCN3CCCC3C2)c2cnn(C)c2n1 (stereo not drawn) = 1.45

Return cytotoxicity at 70.5 h for the following compound: Cc1ccc(CN2CCCC3(CCC(=O)N3)CC2)s1 (stereo not drawn)
-7.87

###

test: Human HepG2 cell viability assay in 384 well format; assay type: toxicity, cell-based; parameters: dose 125 nL, time 70.5 hour; concentration not given beside the values; settings: HepG2 cells, read-out: Inhibition
quantity: cytotoxicity at 70.5 h

Use the examples below as a reference point.
CNC(=O)c1cccc(C2CNCCN2C(=O)c2ccn(C)n2)c1 (configuration not stated) = 0.974%
Cc1cc(C(=O)N2CCC(NC(=O)c3cccnc3)CC2)c(C)o1 = -9.02%
CCn1cc(CN2CCCC(CO)(CCc3ccccc3)C2)c(C)n1 (configuration not stated) = -7.26%
Cc1ccc(CN2CCC3(CC2)C(=O)N(C)c2ccccc23)s1 = 0.079%
CC(C)c1nc(CN(C)Cc2ccc(O)c(C(=O)O)c2)cs1 = -4.7%
CCN1CCN(c2ccc(C(=O)NCCn3ccnc3)cc2F)CC1 = -3.77%
COc1cccc(CCC2CCCN(C(=O)c3cnccn3)C2)c1 (configuration not stated) = -7.12%
O=C1Nc2ccccc2CNC12CCN(CC1CC1)CC2 = -9.09%
O=C1CNc2ncnc(NCc3cccs3)c2N1 = -5.96%
c1nc2c(c(N3CCCC(Cn4cncn4)C3)n1)CCC2 (configuration not stated) = -7.36%

// Input: `Cc1ccn(-c2ccc(NCc3ccccc3F)nn2)n1` . Output its cytotoxicity at 70.5 h only.
13.7%

Identify measured cytotoxicity at 70.5 h corresponding to O=C(c1ccccc1)N1CC2(CCNC2)OCc2ccccc21 (configuration not stated)
-9.98%

Fill in reported cytotoxicity at 70.5 h for this entry: CCn1nccc1C(=O)NC(Cn1cccn1)C(C)(C)C (configuration not stated)
2.9%

Return cytotoxicity at 70.5 h for the following compound: Cc1ccc(CCC(C)NC2CCN(C(N)=O)CC2)cc1 (configuration not stated)
-1.06%

Find the measured cytotoxicity at 70.5 h of `COc1ccccc1C1CCN(C(=O)CN2C(=O)OC(C)(C)C2=O)CC1` and report it.
-6.76%

Given `O=S1(=O)C[C@@H]2[C@H](C1)N(Cc1cc(Cl)cc(Cl)c1)CCN2CC1CC1` , respond with its cytotoxicity at 70.5 h.
-17.1%

// Input: CCC1CCCN(Cc2nc(N)c3ccccc3n2)C1 (configuration not stated) . Output its cytotoxicity at 70.5 h only.
4.3%
